Recorded pull-down binding Z-score by entry
# System: TO-N3 (biotin conjugate)
# ASSAY PROCEDURE: pull-down binding Z-score (relative to library population); higher = stronger binding
# CONDITION LABEL: RNA library: Library-2

Worked cases, answers included:
{"SEQUENCE CONTENT": "AUUCUGAUGAUCACCUAGCCAGAAU [hsa-mir-5583-2]", "pull-down binding Z-score": 1.45}
{"SEQUENCE CONTENT": "AGUGGAAAAAGUUCUUUUCUUCCUCU [hsa-mir-3192]", "pull-down binding Z-score": 0.0678}
{"SEQUENCE CONTENT": "GCCGAAUACCAUAAUGAAUCUGGC [SHAPE_invitro_SARS-CoV-2_Motif_29]", "pull-down binding Z-score": -0.479}

(Q) Item CAUUGGUGUAAAGCUGGAGACCCACUG [hsa-mir-324] with TO-N3 (biotin conjugate) - pull-down binding Z-score?
(A) 0.738

(Q) Field: pull-down binding Z-score (TO-N3 (biotin conjugate)). Entry: GGGCGGAACACCCAGCCCC [hsa-mir-4417]
(A) -0.21

(Q) Param readout= pull-down binding Z-score; system= TO-N3 (biotin conjugate); entry= CCAUAAUGAAUCUGG [DMSMaPseq_invitro_SARS-CoV-2_Motif_27] ; returns value.
(A) -0.345

(Q) What is its pull-down binding Z-score for TO-N3 (biotin conjugate)? Entry: AGUAUGGAUUAAAUUUAUAUUUUCCUCGAUACU [hsa-mir-8084]
(A) 0.316

(Q) What is its pull-down binding Z-score for TO-N3 (biotin conjugate)? Entry: CCCUCAUAUGGCAGUUGGCGAGGGCCCAGUGAG [hsa-mir-6769a]
(A) 1.33

(Q) Give TO-N3 (biotin conjugate) pull-down binding Z-score for AGCACUUUCUGUUUUGUGAAAGAAAAGAAAGUGCU [hsa-mir-516b-1]
(A) -1.32

(Q) Reported pull-down binding Z-score for TO-N3 (biotin conjugate), given GGCGUGGACAACUUGCU [hsa-mir-3943] ?
(A) 0.131

---

# System: TO-3-N3-2 (biotin conjugate)
# ASSAY PROCEDURE: pull-down binding Z-score (relative to library population); higher = stronger binding
# CONDITION LABEL: RNA library: Library-2
We use -0.3 as the dividing line for pull-down binding Z-score: on or above the line is y, below is n.

Reference set (5 entries):
{"SEQUENCE CONTENT": "AGUUUUUGUACACAAUUAAACCGUGCUUUAACU", "LABEL CLASS": "y"}
{"SEQUENCE CONTENT": "CCUCAAUCACUUGCCAGAGAGAUUGG [hsa-mir-1200]", "LABEL CLASS": "y"}
{"SEQUENCE CONTENT": "GCUGGAUUUCCCAGCUUGACUCUAAC [hsa-mir-200a]", "LABEL CLASS": "y"}
{"SEQUENCE CONTENT": "CAUGUUUAUCACCCGCGAAGAAGCUAUAAGACAUGUACGUGCAUGGAUUGGCUUCGAUGUCGAGGGGUGUCAUG [DMSMaPseq_invitro_SARS-CoV-2_Motif_326]", "LABEL CLASS": "n"}
{"SEQUENCE CONTENT": "GUUGCGUCACCAAAUGAAUGCAAC", "LABEL CLASS": "n"}

(Q) Is pull-down binding Z-score for CAUGUUAAGUGUUGUCCUACAG [hsa-mir-5087] at or above -0.3?
(A) y

(Q) hey, is pull-down binding Z-score for this one >= -0.3? GAAAAGAACAAUCAAGGGUACACACCACUGGUUGUUACUCACAAUUUUGACUUCACUUUUAGUUUUAGUCCAGAGUACUCAAUGGUCUUUGUUCUUUUU
(A) y

(Q) Could you verify whether the entry GUGUUUAUGAUUACUUAGUUUCUACACAGGAGUUUAGAUAUAUGAAUUCACAGGGACUACUCCCACCCAAGAAUAGCAUAGAUGC shows pull-down binding Z-score of no less than -0.3?
(A) y

(Q) Check this sequence for pull-down binding Z-score at or above -0.3: UAGGUUGUGUGCUGUCCAGCCUG [hsa-mir-26b]
(A) n

(Q) # bool: pull-down binding Z-score of UGUUCGUUUUGCUCAUGUCGAAUC [hsa-mir-487b] >= -0.3
(A) n

(Q) Answer whether pull-down binding Z-score of CUCGCUGGGAGGUGUGCUAUCGUCUUCCCUGGGAG [hsa-mir-3689d-2] is greater than or equal to -0.3.
(A) y

(Q) For this sequence, is measured pull-down binding Z-score -0.3 or higher? GAUUAUUGUAAGCAGGAUCCAUUCAAUAAUC [hsa-mir-5188]
(A) n

(Q) Answer whether pull-down binding Z-score of GUUAUAAAUGGAGACAGGUGGUUUCUCAAUCGAUUUACCACAACUCUUAAUGAC is greater than or equal to -0.3.
(A) y
